System: breast cancer cell line MX-1
assay explanation: MX-1 cell line proliferation assay
Format: cell-based
assay conditions: MX-1 cells, 3-day proliferation assay, Cell Titer Glo; read-out: Cellular proliferation: EC50
With a cut-off of 9 nM, any EC50 strictly below it is called 1; any EC50 meeting it or above is called -1.

molecule	measured on	assigned class
CC(C)CNC(=O)C1c2c[nH]c3c(=O)n(C)cc(c23)-c2cc(CS(C)(=O)=O)ccc2N1c1ccc(F)cc1F (centres unmarked)	breast cancer cell line MX-1	-1
COC(=O)NC1CCC(N2Cc3c[nH]c4c(=O)n(C)cc(c34)-c3cc(CS(C)(=O)=O)ccc32)CC1 (centres unmarked) [Example 224]	breast cancer cell line MX-1	1
CC(C)CC1Nc2ccc(CS(C)(=O)=O)cc2-c2cn(C)c(=O)c3[nH]cc1c23 (racemic)	breast cancer cell line MX-1	-1
Cn1cc2c3c(c(CN4CCOCC4)[nH]c3c1=O)CN(c1ccc(Cl)cc1)c1ccc(CS(C)(=O)=O)cc1-2	breast cancer cell line MX-1	-1
CCNC(=O)c1[nH]c2c(=O)n(C)cc3c2c1C(C(=O)OCC)N(c1ccc(F)cc1F)c1ccc(CS(C)(=O)=O)cc1-3 (centres unmarked)	breast cancer cell line MX-1	-1
Cn1cc2c3c(c[nH]c3c1=O)CN(C(=O)C1CC1)c1ccc(CS(C)(=O)=O)cc1-2	breast cancer cell line MX-1	1
CN(C)C(=O)c1cc(CS(C)(=O)=O)cc2c1N(c1ccc(F)cc1F)Cc1c[nH]c3c(=O)n(C)cc-2c13	breast cancer cell line MX-1	-1
Cn1cc2c3c(c[nH]c3c1=O)CN(c1ncc(F)cc1F)c1ccc(CS(C)(=O)=O)cc1-2	breast cancer cell line MX-1	1
CCOC(=O)C1c2c[nH]c3c(=O)n(C)cc(c23)-c2cc(CS(C)(=O)=O)ccc2N1c1ccc(F)cc1 (racemic) [Example 34]	breast cancer cell line MX-1	-1
CC(C)CC(=O)N1Cc2c[nH]c3c(=O)n(C)cc(c23)-c2cc(CS(C)(=O)=O)ccc21	breast cancer cell line MX-1	-1
Cn1cc2c3c(c[nH]c3c1=O)CN(C1CCOCC1)c1ccc(CS(C)(=O)=O)cc1-2	breast cancer cell line MX-1	1
Cn1cc2c3c(c[nH]c3c1=O)CN(S(=O)(=O)C1CC1)c1ccc(CS(C)(=O)=O)cc1-2	breast cancer cell line MX-1	-1
Cn1cc2c3c(c[nH]c3c1=O)C(Cn1ccccc1=O)N(c1ccc(F)cc1F)c1ccc(CS(C)(=O)=O)cc1-2 (single isomer, unassigned) [Example 252]	breast cancer cell line MX-1	-1
Cn1cc2c3c(c[nH]c3c1=O)CN(CC1CCN(C(=O)OC(C)(C)C)C1)c1ccc(CS(C)(=O)=O)cc1-2 (racemic)	breast cancer cell line MX-1	1

* * *

measured on: BRD4 (BDII_E352-M457) (Homo sapiens)
Construct: protocol; made in house
assay explanation: TR-FRET bromodomain binding assay, second bromodomain of BRD4
assay conditions: TR-FRET assay protocol G (compound 0.92 μM-15 pM); 30 nM probe
pKi: −log10 of the molar value.
Listing of entries alongside the reported pKi.
metric: pKi

molecule	measured on	value reported
Cn1cc2c3c(c[nH]c3c1=O)C(CNC(=O)CNC(=O)OC(C)(C)C)N(c1ccc(F)cc1F)c1ccc(CS(C)(=O)=O)cc1-2 (stereo not shown)	BRD4 (BDII_E352-M457) (Homo sapiens)	8.67
CC(C)CC(=O)N1Cc2c[nH]c3c(=O)n(C)cc(c23)-c2cc(CS(C)(=O)=O)ccc21	BRD4 (BDII_E352-M457) (Homo sapiens)	8.72
CCCN1Cc2c[nH]c3c(=O)n(C)cc(c23)-c2cc(F)cc(F)c21	BRD4 (BDII_E352-M457) (Homo sapiens)	9.07
Cn1cc2c3c(c[nH]c3c1=O)CN(C1CCC(NC(=O)OC(C)(C)C)CC1)c1ccc(CS(C)(=O)=O)cc1-2 (stereo not shown) [Example 197]	BRD4 (BDII_E352-M457) (Homo sapiens)	8.58
Cn1cc(-c2[nH]c3c(=O)n(C)cc4c3c2CN(c2ccccc2)c2ccc(S(C)(=O)=O)cc2-4)cn1	BRD4 (BDII_E352-M457) (Homo sapiens)	8.81
CC(C1CCOCC1)N1Cc2c[nH]c3c(=O)n(C)cc(c23)-c2cc(CS(C)(=O)=O)ccc21 (racemic)	BRD4 (BDII_E352-M457) (Homo sapiens)	8.34
Cn1cc2c3c(c[nH]c3c1=O)C(Cn1ccccc1=O)N(c1ccc(F)cc1F)c1ccc(CS(C)(=O)=O)cc1-2 (single isomer, unassigned) [Example 251]	BRD4 (BDII_E352-M457) (Homo sapiens)	6.85
